Target: FAK (Homo sapiens, UniProt Q05397)
Construct: homozygous knock-in of a HiBiT tag (Promega Corporation, Madison, WI) to the C-terminus of the FAK gene in its natural genomic locus; endogenous in cells; host or cells: JHH-4-FAK-HiBiT clone d01 (CRISPR-Cas9 knock-in at the endogenous locus)
Sequence (Q05397 whole entry): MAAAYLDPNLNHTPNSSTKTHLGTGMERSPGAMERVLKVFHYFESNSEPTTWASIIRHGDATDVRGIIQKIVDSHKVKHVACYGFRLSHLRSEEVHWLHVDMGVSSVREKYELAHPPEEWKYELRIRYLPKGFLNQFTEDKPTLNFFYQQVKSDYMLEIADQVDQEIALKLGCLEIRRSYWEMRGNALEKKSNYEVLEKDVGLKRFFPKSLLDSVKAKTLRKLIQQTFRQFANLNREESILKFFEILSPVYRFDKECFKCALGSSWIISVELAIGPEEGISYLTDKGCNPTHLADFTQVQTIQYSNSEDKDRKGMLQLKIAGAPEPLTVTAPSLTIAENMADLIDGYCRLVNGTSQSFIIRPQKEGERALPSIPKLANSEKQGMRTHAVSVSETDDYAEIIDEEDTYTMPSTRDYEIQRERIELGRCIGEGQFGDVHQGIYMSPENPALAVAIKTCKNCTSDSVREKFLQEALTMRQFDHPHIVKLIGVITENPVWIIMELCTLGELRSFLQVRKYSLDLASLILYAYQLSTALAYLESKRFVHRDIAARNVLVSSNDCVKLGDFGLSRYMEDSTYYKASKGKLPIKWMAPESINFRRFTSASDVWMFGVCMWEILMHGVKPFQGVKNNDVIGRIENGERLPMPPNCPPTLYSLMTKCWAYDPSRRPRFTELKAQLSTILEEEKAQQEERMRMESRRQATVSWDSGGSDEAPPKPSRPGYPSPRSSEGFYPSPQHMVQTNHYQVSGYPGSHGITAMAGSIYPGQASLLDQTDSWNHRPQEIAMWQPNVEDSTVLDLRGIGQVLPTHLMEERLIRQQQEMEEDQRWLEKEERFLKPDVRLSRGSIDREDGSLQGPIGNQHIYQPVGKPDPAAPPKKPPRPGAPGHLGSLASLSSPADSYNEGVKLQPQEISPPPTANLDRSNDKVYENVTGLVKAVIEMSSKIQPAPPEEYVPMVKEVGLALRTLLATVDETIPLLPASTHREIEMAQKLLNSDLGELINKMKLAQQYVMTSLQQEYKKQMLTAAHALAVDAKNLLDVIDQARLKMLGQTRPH
Test: FAK-HiBiT Degradation Assay
Assay type: cell-based
Conditions: lower limit of the four parameter fit (value A); Ymax derived using DMSO control; JHH-4-FAK-HiBiT cells, two hours
assay-metric: FAK HiBiT Ymin

Some compounds with known FAK HiBiT Ymin results, for comparison:
Cc1cnc(-c2cc(N3CC(F)C3)nc3c2cnn3Cc2ccc3c(c2)CN(C2CCC(=O)NC2=O)C3=O)c(Cl)c1 (stereo not shown): 8.26
CC(C)Nc1cc(-c2ncccc2Cl)c2cnn(Cc3ccc4c(c3)CN(C3CCC(=O)NC3=O)C4=O)c2n1 (stereo not shown): 25.54
O=C1CC[C@H](N2Cc3cc(Cn4ncc5c(-c6ncc(C(F)(F)F)cc6Cl)cc(NCCF)nc54)ccc3C2=O)C(=O)N1: 22.43
Cc1cc(Cl)cnc1-c1c(F)c(N2CC(F)C2)nc2c1cnn2Cc1ccc2c(c1)CN(C1CCC(=O)NC1=O)C2=O (stereo not shown): 7.33

(a) N#Cc1cnc(-c2cc(N3CCC3)nc3c2cnn3Cc2ccc3c(c2)CN(C2CCC(=O)NC2=O)C3=O)c(F)c1 (stereo not shown)
(b) O=C1CCC(N2Cc3cc(Cn4ccc5c(-c6ncc(F)cc6Cl)cc(N6CC(F)C6)nc54)ccc3C2=O)C(=O)N1 (stereo not shown)
(c) CC(C)(O)c1ccc(Cl)c(-c2cc(N3CCC3)nc3c2cnn3Cc2ccc3c(c2)CN(C2CCC(=O)NC2=O)C3=O)c1 (stereo not shown)
Highest FAK HiBiT Ymin first, then in falling order down to the smallest. Answer by listing the labels in the requested order.
c, a, b
